# MEASUREMENT_NOTES: Determination of MTD of Compound 4 in mice (HT-29 xenograft study)
# MEASUREMENT_CONTEXT: mouse, in vivo; female nude mice with subcutaneous HT-29 xenografts; compound dissolved in normal saline
EXPERIMENTAL_ENDPOINT: MTD (mg/kg)
Write the answer as a number in mg/kg, unit excluded.

Req: Tell me the measured MTD of CON(C)C(=O)N1N=C(c2cc(F)ccc2F)S[C@@]1(CCCN)c1ccccc1 [Compound 4] , please.
Resp: 20
